Assay: Total drug level in rat plasma at 1 mg/kg, po
Assay type: ADME, organism-based
Conditions: in vivo
measured attribute: concentration

Can you look up the measured concentration of COc1ccc(F)c(-c2ccc3c(c2)CC[C@H]3Oc2cccc([C@H](C3CC3)[C@H](C)C(=O)O)c2)c1 for me?
689 nM

###

Assay: Clearance in Wistar Han rat at 1 mg/kg, iv or 2 mg/kg, po
Assay type: ADME, organism-based
Conditions: in vivo
measured attribute: clearance (mL/min/kg)
Numbers only, in mL/min/kg.

Worked examples follow.
Can you look up the measured clearance of COc1cc(-c2ccc3c(c2)CC[C@H]3Oc2cccc([C@H](C3CC3)[C@H](C)C(=O)O)c2)c(F)cn1 for me?
0.6

Can you look up the measured clearance of COc1ccc(F)c(-c2ccc3c(c2)CC[C@H]3Oc2cccc([C@H](C3CC3)[C@H](C)C(=O)O)c2)c1 for me?
2.8

Can you look up the measured clearance of COc1ccc(F)c(-c2ccc3c(c2)CC[C@H]3Oc2cccc([C@H](C3CC3)[C@H](C)C(=O)O)c2F)c1 for me?
2.8

# next compound below
Can you look up the measured clearance of COc1cc(-c2ccc3c(c2)CC[C@H]3Oc2cccc([C@H](C3CC3)[C@H](C)C(=O)O)c2F)c(F)cn1 for me?
2.9

###

Target: Free fatty acid receptor 1 (Homo sapiens, UniProt O14842)
Sequence (O14842 whole entry): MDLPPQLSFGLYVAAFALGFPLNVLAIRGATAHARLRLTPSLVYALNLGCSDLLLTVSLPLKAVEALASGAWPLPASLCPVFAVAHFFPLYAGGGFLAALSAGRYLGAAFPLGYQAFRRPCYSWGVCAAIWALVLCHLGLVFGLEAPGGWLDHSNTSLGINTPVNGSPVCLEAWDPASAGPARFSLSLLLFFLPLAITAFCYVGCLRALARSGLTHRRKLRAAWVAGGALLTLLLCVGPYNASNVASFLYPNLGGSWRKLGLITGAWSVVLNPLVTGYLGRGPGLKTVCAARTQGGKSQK
Experiment: Positive allosteric modulation of recombinant human GPR40 expressed in HEK293 cells assessed as increase in [3H]-myo-inositol phosphate accumulation measured after 60 mins in absence of human serum by microbeta counting method relative to control
Type: functional, cell-based
Set-up: concentration or dose not given beside the values
Mark criterion met only when Activity stays strictly below 300%. Values equal to the cut-off are criterion not met.

Study these solved cases before continuing.
Lab note: Activity threshold 300%. Does this molecule come in strictly under it? COc1ccc(F)c(-c2cc3c(cc2F)[C@H](Oc2cccc([C@H](C4CC4)[C@H](C)C(=O)O)c2)CC3)c1
criterion met

Lab note: Activity threshold 300%. Does this molecule come in strictly under it? COc1ccc(F)c(-c2ccc3c(c2)CC[C@H]3Oc2cccc([C@H](C3CC3)[C@H](C)C(=O)O)c2)c1
criterion not met

Lab note: Activity threshold 300%. Does this molecule come in strictly under it? COc1cc(-c2ccc3c(c2)CC[C@H]3Oc2cccc([C@H](C3CC3)[C@H](C)C(=O)O)c2F)c(F)cn1
criterion not met

Lab note: Activity threshold 300%. Does this molecule come in strictly under it? COc1cc(-c2ccc3c(c2)CC[C@H]3Oc2cccc([C@H](C3CC3)[C@H](C)C(=O)O)c2)c(F)cn1
criterion not met

Lab note: Activity threshold 300%. Does this molecule come in strictly under it? COc1ccc(F)c(-c2cnc3c(c2)CC[C@H]3Oc2cccc([C@H](C3CC3)[C@H](C)C(=O)O)c2)c1
criterion met

Others:
Lab note: Activity threshold 300%. Does this molecule come in strictly under it? COc1ccc(F)c(-c2cc3c(cn2)[C@H](Oc2cccc([C@H](C4CC4)[C@H](C)C(=O)O)c2)CC3)c1
criterion not met

Lab note: Activity threshold 300%. Does this molecule come in strictly under it? COc1ccc(F)c(-c2ccc3c(c2)CC[C@@H]3Oc2cccc([C@H](C3CC3)[C@H](C)C(=O)O)c2)c1
criterion not met
